The origin of these recorded values is PubChem BioAssay AID2060485.

- Test system: A375 multi-cell spheroids with HUVEC/MSC, viability
- assay_name: Anticancer human tumor A375 cell line growth inhibition [GQUAD]; active = viability on the fitted dose curve at most 10% of control; inactive = the rest;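 note: spheroids exposed to compounds for seven days before readout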
- experimental_setup: second compound 3.16 µM; first compound 10 µM
Result category, one only: active, inactive

Some entries whose results are on file:
// return assay outcome for O=C(NO)c1cnc(N2CCN(S(=O)(=O)c3ccc4ccccc4c3)CC2)nc1 + Cc1[nH]c2ccc(F)cc2c1-c1nc2c3cccnc3c3ncccc3c2[nH]1
active

// return assay outcome for O=c1[nH]cc(F)c(=O)[nH]1 + CN(C)c1ccc(Nc2c3ccc(NC(=O)CCN4CCCC4)cc3nc3cc(NC(=O)CCN4CCCC4)ccc23)cc1
inactive

Next:
Returns: the outcome recorded for Cc1cccc(N(C)C(=O)C2C(O)CCN2c2nc(C)cc(C(F)(F)F)c2C#N)c1 (stereo not drawn) + CN(C)c1ccc(Nc2c3ccc(NC(=O)CCN4CCCC4)cc3nc3cc(NC(=O)CCN4CCCC4)ccc23)cc1 in this assay.
inactive

---

- Tested on: A375 multi-cell spheroids with HUVEC/MSC, viability
- assay_name: Anticancer human tumor A375 cell line growth inhibition [GQUAD]; active = viability on the fitted dose curve at most 10% of control; inactive = the rest;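 note: spheroids exposed to compounds for seven days before readout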
- experimental_setup: second compound 3.16 µM; first compound 0.00999 µM
# output must be one of active, inactive

Dear all, I need the recorded test outcome for Cc1[nH]c2ccccc2c1CCNCc1ccc(/C=C/C(=O)NO)cc1 + Cc1cnc(CNC(=O)c2c(=O)c3ccc(N4CCCN(C)CC4)nc3n3c2sc2ccccc23)cn1 , thank you.
inactive

// outcome(item) with item = CCc1c2c(nc3ccc(O)cc13)-c1cc3c(c(=O)n1C2)COC(=O)[C@]3(O)CC + Cc1[nH]c2ccc(F)cc2c1-c1nc2c3cccnc3c3ncccc3c2[nH]1
inactive

// param item: CC[C@@]1(O)C(=O)OCc2c1cc1n(c2=O)Cc2cc3c(CN(C)C)c(O)ccc3nc2-1 + CN(C)c1ccc(Nc2c3ccc(NC(=O)CCN4CCCC4)cc3nc3cc(NC(=O)CCN4CCCC4)ccc23)cc1 ; yields the recorded call
inactive

Please state the recorded outcome for this molecule: Cn1ncnc1[C@H]1c2n[nH]c(=O)c3cc(F)cc(c23)N[C@@H]1c1ccc(F)cc1 + CN(C)c1ccc(Nc2c3ccc(NC(=O)CCN4CCCC4)cc3nc3cc(NC(=O)CCN4CCCC4)ccc23)cc1
inactive

Please state the recorded outcome for this molecule: CC[C@@]1(O)C(=O)OCc2c1cc1n(c2=O)Cc2cc3c(CN(C)C)c(O)ccc3nc2-1 + Cc1cnc(CNC(=O)c2c(=O)c3ccc(N4CCCN(C)CC4)nc3n3c2sc2ccccc23)cn1
inactive

---
Would you mind telling me which call this test gave CC[C@@]1(O)C(=O)OCc2c1cc1n(c2=O)Cc2cc3c(CN(C)C)c(O)ccc3nc2-1 + Cc1[nH]c2ccc(F)cc2c1-c1nc2c3cccnc3c3ncccc3c2[nH]1 ?
inactive

Lab log entry: Cc1[nH]c2ccccc2c1CCNCc1ccc(/C=C/C(=O)NO)cc1 + Cc1[nH]c2ccc(F)cc2c1-c1nc2c3cccnc3c3ncccc3c2[nH]1 — outcome as called in the assay?
inactive

Record lookup: outcome of this test for CCc1c2c(nc3ccc(O)cc13)-c1cc3c(c(=O)n1C2)COC(=O)[C@]3(O)CC + CN(C)c1ccc(Nc2c3ccc(NC(=O)CCN4CCCC4)cc3nc3cc(NC(=O)CCN4CCCC4)ccc23)cc1 ?
active

Record lookup: outcome of this test for Cn1ncnc1[C@H]1c2n[nH]c(=O)c3cc(F)cc(c23)N[C@@H]1c1ccc(F)cc1 + Cc1cnc(CNC(=O)c2c(=O)c3ccc(N4CCCN(C)CC4)nc3n3c2sc2ccccc23)cn1 ?
inactive
